Reference for the values: patent US5514706A

- System: cultured smooth cells derived from rabbit aorta
- assay-remarks: 3H-thymidine incorporation (DNA synthesis) in vascular smooth muscle cells stimulated with platelet-derived growth factor
- Type: cell-based
- condition-details: Oryctolagus cuniculus; 20 ng/ml platelet-derived growth factor, 24 hours
pIC50: −log10 of the molar value.
Below: a set of entries, each annotated with reported pIC50.

Below: 2 molecules and their reported pIC50.
# molecule, experimental-value
measured = [
    ("COc1ccc2ccc3c(c2c1)C(c1cccc([N+](=O)[O-])c1)C(C#N)=C(N)O3 (stereo not shown)", "< 5.52"),
    ("N#CC1=C(N)Oc2ccc3ccccc3c2C1c1ccccc1F (stereo not shown)", "< 5.52"),
]

Item under review: N#CC1=C(N)Oc2ccc3cc(C(=O)O)ccc3c2C1c1cccc([N+](=O)[O-])c1 (stereo not shown) . Reported pIC50?
< 4.52

Request the reported pIC50 associated with N#CC1=C(N)Oc2ccc3ccccc3c2C1c1ccccc1[N+](=O)[O-] (stereo not shown)
< 4.52
